- target.or.system: T1, integrin α5β1, intact, on wild type K562 cells (human (endogenous in K562), UniProt P08648 42-1049; P05556 21-798)
- T1 construct: integrin α5 subunit, natively expressed on K562 cells; integrin β1 subunit, natively expressed on K562 cells; also called K562 WT (α5β1); K562 WT; source: endogenous, on wild type K562 cells
- T1 sequence (P08648 42-1049, chain 1 of 2): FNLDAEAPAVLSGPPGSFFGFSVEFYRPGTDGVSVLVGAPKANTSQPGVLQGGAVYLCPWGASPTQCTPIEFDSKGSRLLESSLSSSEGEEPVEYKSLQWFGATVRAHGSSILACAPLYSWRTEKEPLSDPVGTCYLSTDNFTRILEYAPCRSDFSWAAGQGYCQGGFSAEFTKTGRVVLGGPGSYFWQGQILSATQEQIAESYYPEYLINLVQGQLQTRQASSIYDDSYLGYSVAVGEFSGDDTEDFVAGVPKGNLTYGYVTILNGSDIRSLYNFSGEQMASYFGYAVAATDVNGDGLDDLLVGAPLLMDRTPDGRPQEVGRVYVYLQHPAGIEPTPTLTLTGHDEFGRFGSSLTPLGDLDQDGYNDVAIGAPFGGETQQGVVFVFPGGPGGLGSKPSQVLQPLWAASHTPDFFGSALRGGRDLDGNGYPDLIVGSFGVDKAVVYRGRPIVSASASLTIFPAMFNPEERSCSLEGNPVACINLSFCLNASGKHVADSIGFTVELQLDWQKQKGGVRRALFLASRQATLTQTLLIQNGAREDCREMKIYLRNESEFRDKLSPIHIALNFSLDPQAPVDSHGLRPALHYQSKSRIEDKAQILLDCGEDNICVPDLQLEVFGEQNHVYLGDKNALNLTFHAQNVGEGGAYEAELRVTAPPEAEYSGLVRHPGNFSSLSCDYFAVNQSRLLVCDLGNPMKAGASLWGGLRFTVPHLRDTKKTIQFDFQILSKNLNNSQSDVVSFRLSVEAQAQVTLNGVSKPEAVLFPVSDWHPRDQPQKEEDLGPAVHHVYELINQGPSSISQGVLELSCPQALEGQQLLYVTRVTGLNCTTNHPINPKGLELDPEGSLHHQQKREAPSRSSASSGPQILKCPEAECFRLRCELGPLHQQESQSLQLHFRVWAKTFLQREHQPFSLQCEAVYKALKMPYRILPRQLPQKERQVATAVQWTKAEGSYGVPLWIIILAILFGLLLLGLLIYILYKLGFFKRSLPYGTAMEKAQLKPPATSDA
- T1 sequence (P05556 21-798, chain 2 of 2): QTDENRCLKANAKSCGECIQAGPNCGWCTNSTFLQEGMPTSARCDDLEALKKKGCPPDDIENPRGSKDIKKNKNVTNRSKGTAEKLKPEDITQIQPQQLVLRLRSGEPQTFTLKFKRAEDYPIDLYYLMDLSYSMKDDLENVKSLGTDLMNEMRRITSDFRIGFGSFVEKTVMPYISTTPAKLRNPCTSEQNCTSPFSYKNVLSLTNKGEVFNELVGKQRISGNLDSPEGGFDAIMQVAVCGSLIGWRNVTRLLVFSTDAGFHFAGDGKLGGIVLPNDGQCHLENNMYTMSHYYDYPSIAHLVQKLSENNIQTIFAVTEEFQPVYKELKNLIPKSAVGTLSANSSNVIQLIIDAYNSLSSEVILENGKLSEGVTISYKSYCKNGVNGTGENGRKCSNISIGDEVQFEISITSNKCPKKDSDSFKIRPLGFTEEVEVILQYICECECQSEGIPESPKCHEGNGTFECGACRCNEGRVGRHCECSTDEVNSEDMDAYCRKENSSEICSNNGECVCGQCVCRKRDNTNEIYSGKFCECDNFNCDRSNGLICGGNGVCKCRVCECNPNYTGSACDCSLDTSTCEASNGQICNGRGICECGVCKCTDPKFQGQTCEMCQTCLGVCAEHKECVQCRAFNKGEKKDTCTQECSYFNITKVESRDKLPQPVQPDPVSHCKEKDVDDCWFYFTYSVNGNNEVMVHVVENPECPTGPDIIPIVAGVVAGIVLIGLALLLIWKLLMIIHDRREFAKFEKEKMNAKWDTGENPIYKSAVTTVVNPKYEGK
- test: flow cytometry on cells; intact integrins on K562 cells in L15 medium with 1% BSA and 1 mM Mn2+, no washing; titrator's binding read as enhancement of binding of AF647-9EG7 Fab (10 nM); EC50 of a three-parameter dose-response fit taken as Kd
- cond: one partner purified
Non-standard residues stand in square brackets, D forms with d.
property.name: Kd (µM)
# output: bare number, implied unit µM

-- ask Assign Kd to the following record: cyclo(RGD[dF]K) (cyclic pentapeptide, a cilengitide analog; f = D-Phe; Unlabelled soluble peptide used as titrator) [cRGDfK peptide, cyclo[Arg-Gly-Asp-D-Phe-Lys]]
-- reply 11
